Experiment: collision cross section of modified peptide (TIMS, N2, iRT-aligned); higher = larger / more extended gas-phase ion
Settings: charge state: 3; modification: Malonyl
Param threshold (500 Å²) applies to collision cross section; output Criterion met when value >= threshold, Criterion not met when value < threshold.

1. HELQANCYEEVKDR [_HELQANCYEEVK(Malonyl)DR_]
Criterion not met
2. VTLEVGKVIQQGR [_VTLEVGK(Malonyl)VIQQGR_]
Criterion not met
3. SSGPGGQNVNKVNSK [_SSGPGGQNVNK(Malonyl)VNSK_]
Criterion not met
4. ANEKTESSSAQQVAVSR [_ANEK(Malonyl)TESSSAQQVAVSR_]
Criterion met
5. SKHLQEQLNELK [_SK(Malonyl)HLQEQLNELK_]
Criterion not met
6. TEVLSPNSKVESK [_TEVLSPNSK(Malonyl)VESK_]
Criterion not met
7. VSPASSVDSNIPSSQGYKK [_VSPASSVDSNIPSSQGYK(Malonyl)K_]
Criterion met
8. FSAYIKNSNPALNDNLEK [_FSAYIK(Malonyl)NSNPALNDNLEK_]
Criterion met
9. SITHSTVGSKGEK [_SITHSTVGSK(Malonyl)GEK_]
Criterion not met
10. IVSGKDYNVTANSK [_IVSGK(Malonyl)DYNVTANSK_]
Criterion not met
11. DYSAPVNFISAGLKK [_DYSAPVNFISAGLK(Malonyl)K_]
Criterion met
12. TQAYQDQKPGTSGLR [_TQAYQDQK(Malonyl)PGTSGLR_]
Criterion not met
13. PSVGSQSNQAGQGKR [_PSVGSQSNQAGQGK(Malonyl)R_]
Criterion not met
14. LTEKELAEAASK [_LTEK(Malonyl)ELAEAASK_]
Criterion not met
15. IHNAENIQPGEQKYEYK [_IHNAENIQPGEQK(Malonyl)YEYK_]
Criterion met
16. VLTANSNPSSPSAAKR [_VLTANSNPSSPSAAK(Malonyl)R_]
Criterion not met
17. SPSDSGYSYETIGKTTK [_SPSDSGYSYETIGK(Malonyl)TTK_]
Criterion met
18. GTISAPGKVVTAAAQAK [_GTISAPGK(Malonyl)VVTAAAQAK_]
Criterion met

* * *

Test: collision cross section of unmodified peptide (TIMS, N2, iRT-aligned); higher = larger / more extended gas-phase ion
Details: charge state: 2
Label not fulfilled if collision cross section falls below 400 Å²; label fulfilled in every other case.

1. LGVPGLPGYPGR
not fulfilled
2. AVAITQSPSSVR
not fulfilled
3. GTITVSAQELKDNR
fulfilled
4. VNVEAPDVNLEGLGGKLK
fulfilled
5. IHPEGPPLK
not fulfilled
6. LEKDYQPGITFIVVQK
fulfilled
7. DFSLTSSSQTPGATK
fulfilled
8. LSQEDPDYGIR
not fulfilled
9. APVGSVVSVPSQSSASSDK
fulfilled
10. LEQVEKELLR
not fulfilled
11. AIQLNPSYIR
not fulfilled
12. GPQNATDSYVHK
not fulfilled
13. VEELEGEITTLNHK
fulfilled
14. YTAQVDAEEK
not fulfilled
15. VFSIISSEKELK
fulfilled
16. AYDATHLVK
not fulfilled
17. YEATSVQQK
not fulfilled
18. MTLSVLSR
not fulfilled
19. GDAGEPGR
not fulfilled
20. PPGFSPFRSSR
not fulfilled
21. GEQGEPGAPGIR
not fulfilled
22. LQAAYAGDKADDIQK
fulfilled
23. LGSPSGKTGTCR
not fulfilled
24. TFGKAAGPSLSHTSGGTQSK
fulfilled
25. TAIQAAGYPDK
not fulfilled
26. GEAGPTGPQGEPGVR
not fulfilled
27. SGRGGNFGFGDSR
not fulfilled
28. PARGLYSR
not fulfilled
29. VYSLFLDESR
not fulfilled
30. PDTQYTGR
not fulfilled
31. VRLQTTLR
not fulfilled
32. TSAYGPPTR
not fulfilled
33. HVSPVTPPR
not fulfilled
34. VHATSTYR
not fulfilled
35. LQIASDENYK
not fulfilled
36. ATVASSTQKFQDLGVK
fulfilled

* * *

Experiment: collision cross section of modified peptide (TIMS, N2, iRT-aligned); higher = larger / more extended gas-phase ion
Details: charge state: 2; modification: Dimethyl (K)
Listed next: entries and their corresponding collision cross section.
Property label: collision cross section (Å²)

1) LDEKENLSAK [_LDEK(Dimethyl (K))ENLSAK_]
364.75
2) IVSGKDYNVTANSK [_IVSGK(Dimethyl (K))DYNVTANSK_]
404.57
3) ITESVAETAQTIKK [_ITESVAETAQTIK(Dimethyl (K))K_]
449.13
4) KFGVLSDNFK [_K(Dimethyl (K))FGVLSDNFK_]
367.27
5) FLQEFYQDDELGKK [_FLQEFYQDDELGK(Dimethyl (K))K_]
456.43
6) DHLSDKESK [_DHLSDK(Dimethyl (K))ESK_]
344.63
7) ASDTSSETVFGKR [_ASDTSSETVFGK(Dimethyl (K))R_]
409.3
8) DKALPLEAEVAPVK [_DK(Dimethyl (K))ALPLEAEVAPVK_]
411.93
9) VFIGNLNTLVVKK [_VFIGNLNTLVVK(Dimethyl (K))K_]
427.12
10) ATVASSTQKFQDLGVK [_ATVASSTQK(Dimethyl (K))FQDLGVK_]
461.58
11) INNFSADIKDSK [_INNFSADIK(Dimethyl (K))DSK_]
406.51

* * *

Assay: collision cross section of modified peptide (TIMS, N2, iRT-aligned); higher = larger / more extended gas-phase ion
Conditions: charge state: 2; modification: Trimethyl (K)
Property label: collision cross section (Å²)

1. GSLEKGSPEDK [_GSLEK(Trimethyl (K))GSPEDK_]
363.82
2. LAEEENKAK [_LAEEENK(Trimethyl (K))AK_]
353.67
3. GTISAPGKVVTAAAQAK [_GTISAPGK(Trimethyl (K))VVTAAAQAK_]
476.61
4. LEEVTGKLQVAR [_LEEVTGK(Trimethyl (K))LQVAR_]
402.01
5. LLEQKTQESQK [_LLEQK(Trimethyl (K))TQESQK_]
409.98
6. VDIDAPDVSIEGPDAKLK [_VDIDAPDVSIEGPDAK(Trimethyl (K))LK_]
465.65
7. LQAAYAGDKADDIQK [_LQAAYAGDK(Trimethyl (K))ADDIQK_]
440.52
8. FDDTNPEKEEAK [_FDDTNPEK(Trimethyl (K))EEAK_]
399.27
9. VDVEVPDVSLEGPEGKLK [_VDVEVPDVSLEGPEGK(Trimethyl (K))LK_]
461.69
10. ISALQGKLSK [_ISALQGK(Trimethyl (K))LSK_]
359.1
11. IQTKAGEATVK [_IQTK(Trimethyl (K))AGEATVK_]
376.56
12. SDDESSQKDIK [_SDDESSQK(Trimethyl (K))DIK_]
380.2
13. DYSAPVNFISAGLKK [_DYSAPVNFISAGLK(Trimethyl (K))K_]
463.71
14. SSGPGGQNVNKVNSK [_SSGPGGQNVNK(Trimethyl (K))VNSK_]
400.23
15. ASNAAVKLAESK [_ASNAAVK(Trimethyl (K))LAESK_]
392.01
16. IGNSYFKEEK [_IGNSYFK(Trimethyl (K))EEK_]
378.87
17. TTGFYSGFSEVAEKR [_TTGFYSGFSEVAEK(Trimethyl (K))R_]
459.26
18. IVSGKDYNVTANSK [_IVSGK(Trimethyl (K))DYNVTANSK_]
419.62
19. PSVSTKLISK [_PSVSTK(Trimethyl (K))LISK_]
364.51
20. AAINQKLIETGER [_AAINQK(Trimethyl (K))LIETGER_]
420.64
21. LQEKVESAQSEQK [_LQEK(Trimethyl (K))VESAQSEQK_]
419.24
22. GFCFITYTDEEPVKK [_GFCFITYTDEEPVK(Trimethyl (K))K_]
480.23

* * *

Assay: collision cross section of modified peptide (TIMS, N2, iRT-aligned); higher = larger / more extended gas-phase ion
Conditions: charge state: 3; modification: Nitro (Y)
Property label: collision cross section (Å²)

1. LGDVYVNDAFGTAHR [_LGDVY(Nitro (Y))VNDAFGTAHR_]
500.36
2. YIGTGHADTTK [_Y(Nitro (Y))IGTGHADTTK_]
452.29
3. SYHLQIVTK [_SY(Nitro (Y))HLQIVTK_]
449.3
4. VVPGYGHAVLR [_VVPGY(Nitro (Y))GHAVLR_]
449.51
5. IGAEVYHHLK [_IGAEVY(Nitro (Y))HHLK_]
440.09
6. LAPEYEAAATR [_LAPEY(Nitro (Y))EAAATR_]
436.11
7. AYDATHLVK [_AY(Nitro (Y))DATHLVK_]
417.35
8. YTQVGPDHNR [_Y(Nitro (Y))TQVGPDHNR_]
411.69
9. AAGQPYEQHAK [_AAGQPY(Nitro (Y))EQHAK_]
431.09
10. DLYEPSHGAK [_DLY(Nitro (Y))EPSHGAK_]
435.87
11. TSYAQHQQVR [_TSY(Nitro (Y))AQHQQVR_]
458.71
12. DDIIENAPTTHTEEYSGEEK [_DDIIENAPTTHTEEY(Nitro (Y))SGEEK_]
553.72
13. VYSGHQGR [_VY(Nitro (Y))SGHQGR_]
418.62
14. DLTTAGAVTQCYR [_DLTTAGAVTQCY(Nitro (Y))R_]
462.24
15. HHAAYVNNLNVTEEK [_HHAAY(Nitro (Y))VNNLNVTEEK_]
499.02
16. GPQNATDSYVHK [_GPQNATDSY(Nitro (Y))VHK_]
449.51
17. YLHDESGLNR [_Y(Nitro (Y))LHDESGLNR_]
429.41
18. VHATSTYR [_VHATSTY(Nitro (Y))R_]
400.02
19. AYGELPEHAK [_AY(Nitro (Y))GELPEHAK_]
445.86
20. GNDISSGTVLSDYVGSGPPKK [_GNDISSGTVLSDY(Nitro (Y))VGSGPPKK_]
549.52
21. AEGYEVAHGGR [_AEGY(Nitro (Y))EVAHGGR_]
442.95
22. TVTNAVVTVPAYFNDSQR [_TVTNAVVTVPAY(Nitro (Y))FNDSQR_]
559.7
23. SFEDIHQYR [_SFEDIHQY(Nitro (Y))R_]
453.82
24. LEENHYNTYISK [_LEENHYNTY(Nitro (Y))ISK_]
478.71
25. LYAVHQEGNK [_LY(Nitro (Y))AVHQEGNK_]
458.4
26. FHYQDQEFLK [_FHY(Nitro (Y))QDQEFLK_]
452.15
27. YVHADAPTNK [_Y(Nitro (Y))VHADAPTNK_]
417.54
28. THLAPYSDELR [_THLAPY(Nitro (Y))SDELR_]
453.98
29. GVEAVGSYAENQR [_GVEAVGSY(Nitro (Y))AENQR_]
473.04
